system: UniProtKB P34972
experiment summary: cAMP assay, CHO cells expressing human CB2 receptors
Format: cell-based
condition set: CHO cells expressing human CB2, cAMP; read-out: human CB2 EC50
pEC50: −log10 of the molar value.
The compounds listed here are annotated with their pEC50.

compound	system	pEC50
CCC(CC)(NC(=O)c1ccc(C2CC2)c(OCC[C@@H](O)C(F)(F)F)n1)C(=O)NC	UniProtKB P34972	7.79
Cc1nc([C@H](CC2CC2)NC(=O)c2cccc(-c3ccc(F)c(C(F)(F)F)c3)n2)no1	UniProtKB P34972	7.61
Cc1nc([C@H](NC(=O)c2ccc(C3CC3)c(OCC3CC3)n2)C2CC2)no1	UniProtKB P34972	7.48
CSCC[C@H](NC(=O)c1ccc(N2CC(F)(F)C2)c(OCC2CC2)n1)C(N)=O	UniProtKB P34972	8.55
CCC(CC)(NC(=O)c1ccc(C2CC2)c(-c2cccc(Cl)c2)n1)C(=O)NC	UniProtKB P34972	7.21
O=C(NC1(CO)CCCC1)c1ccc(C2CC2)c(OCC2CC2)n1	UniProtKB P34972	7.32
CC(C)CSc1cccc(C(=O)N[C@@H](CC(C)C)C(N)=O)n1	UniProtKB P34972	7.78
O=C(N[C@@H](CC1CC1)c1nccs1)c1ccc(N2CC(F)(F)C2)c(OCC2CC2)n1	UniProtKB P34972	7.44
CC(C)(NC(=O)c1ccc(C2CCOCC2)c(OCC2CC2)n1)c1nccs1	UniProtKB P34972	7.27
Cc1noc(C(C)(C)NC(=O)c2ccc(C3CC3)c(OCC3CC3)n2)n1	UniProtKB P34972	6.94
CC(C)(CCN1CCOCC1)NC(=O)c1ccc(N2CCCC2)c(OCC2CC2)n1	UniProtKB P34972	8.15
CCC(CC)(NC(=O)c1ccc(C2CC2)c(OCC2CCOCC2)n1)C(=O)O	UniProtKB P34972	7.46
CCC(CC)(NC(=O)c1ccc(C)c(-c2cccc(Cl)c2)n1)C(=O)NC	UniProtKB P34972	7.24
CC(C)(NC(=O)c1cccc(-c2cccc(Cl)c2)n1)c1ncon1	UniProtKB P34972	7.48
CC(C)CC(NC(=O)c1ccc(N2CC(F)(F)C2)c(OCC2CC2)n1)c1ccccn1 (stereo not shown)	UniProtKB P34972	6.72
Cc1nc(C(C)(C)NC(=O)c2ccc(C3CCOC3)c(OCC3CC3)n2)no1 (stereo not shown)	UniProtKB P34972	7.10

====

system: human CB2 receptors (Homo sapiens (Human), UniProt P34972)
Sequence (P34972 whole entry): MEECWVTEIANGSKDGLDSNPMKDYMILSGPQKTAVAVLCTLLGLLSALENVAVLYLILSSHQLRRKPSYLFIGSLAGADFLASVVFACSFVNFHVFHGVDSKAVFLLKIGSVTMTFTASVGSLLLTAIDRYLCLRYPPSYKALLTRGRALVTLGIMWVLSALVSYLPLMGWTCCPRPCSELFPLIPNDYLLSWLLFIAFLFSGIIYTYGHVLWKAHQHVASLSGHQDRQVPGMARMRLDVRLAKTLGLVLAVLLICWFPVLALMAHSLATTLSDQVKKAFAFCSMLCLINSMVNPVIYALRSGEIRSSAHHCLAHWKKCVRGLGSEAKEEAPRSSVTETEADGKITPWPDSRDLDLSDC
experiment summary: cAMP assay, CHO cells expressing human CB2 receptors
Type: cell-based
condition set: CHO cells expressing human CB2, cAMP; read-out: human CB2 EC50
recorded metric: EC50 (nM)

molecule	units label	endpoint value
CN(C)C(=O)[C@@H](NC(=O)c1ccc(C2CC2)c(OCC2CC2)n1)c1ccccc1 [Example 226]	nM	19.9
NC(=O)[C@H](CC1CC1)NC(=O)c1ccc(N2CCC(F)(F)C2)c(OCC2CC2)n1 [Example 112]	nM	15.4
COC(=O)C(C)(C)NC(=O)c1ccc(-c2cc[nH]n2)c(OCC2CC2)n1 [Example 13]	nM	426
CC(C)(NC(=O)c1ccc(C2CCCO2)c(-c2cccc(Cl)c2)n1)c1ncco1 (stereo not shown) [Example 126]	nM	240
CC(C)C(C)(NC(=O)c1ccc(C2CC2)c(OCC2CC2)n1)C(N)=O (stereo not shown) [Example 169]	nM	182
Cc1nc(C2(NC(=O)c3ccc(C4CC4)c(OCc4ccccn4)n3)CCC2)no1 [Example 189]	nM	381
NC(=O)[C@H](CC1CC1)NC(=O)c1ccc(Br)c(OCC2CC2)n1 [Example 110]	nM	224
